Measured values drawn from patent US12503454B2 for this set.

assaySystem: human LPAR1 (Homo sapiens, UniProt Q92633)
Sequence (Q92633 whole entry): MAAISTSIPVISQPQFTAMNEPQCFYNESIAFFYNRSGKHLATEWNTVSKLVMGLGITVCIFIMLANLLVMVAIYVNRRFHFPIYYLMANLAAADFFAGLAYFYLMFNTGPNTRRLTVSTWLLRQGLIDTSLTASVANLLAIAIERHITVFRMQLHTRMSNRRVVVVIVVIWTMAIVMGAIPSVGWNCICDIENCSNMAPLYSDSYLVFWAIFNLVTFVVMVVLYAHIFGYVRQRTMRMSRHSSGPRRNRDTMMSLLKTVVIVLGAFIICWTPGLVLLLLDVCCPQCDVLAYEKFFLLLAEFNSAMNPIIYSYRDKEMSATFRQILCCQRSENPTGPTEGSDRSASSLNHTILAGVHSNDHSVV
assaySummary: LPAR1 intracellular calcium mobilization assay (antagonist mode, FLIPR)
Type: cell-based
details: CHO-K1 EDG2 cells expressing human LPAR1; test compound 0.5 nM to 10 μM pre-incubated 60 minutes at 37° C., then LPA 18:2 at EC80 concentration (100 nM)
Label scheme for EC50: band A (below 30 nM), band B (30 nM to below 100 nM), band C (100 nM or more)

{"columns": ["smi", "assaySystem", "assignedLabel"],
 "data": [
  ["C[C@@H](OC(=O)Nc1c(-c2ccc(C(=O)NC34CC(C#N)(C3)C4)c(Cl)n2)nnn1C)c1cccnc1Cl", "human LPAR1 (Homo sapiens, UniProt Q92633)", "band A"],
  ["C[C@@H](OC(=O)Nc1c(-c2ncc(C(=O)NC34CC(C#N)(C3)C4)cc2F)nnn1C)c1cccnc1Cl", "human LPAR1 (Homo sapiens, UniProt Q92633)", "band A"],
  ["C[C@@H](OC(=O)Nc1c(-c2ccc(C(=O)Nc3ccc(C#N)c(C(F)(F)F)c3)cn2)nnn1C)c1cc(F)cnc1F", "human LPAR1 (Homo sapiens, UniProt Q92633)", "band B"],
  ["C[C@@H](OC(=O)Nc1c(-c2ccc(C(=O)Nc3ccc(-c4cccnc4)cc3)cn2)nnn1C)c1cc(F)cnc1F", "human LPAR1 (Homo sapiens, UniProt Q92633)", "band A"],
  ["C[C@@H](OC(=O)Nc1c(-c2ccc(C(=O)NC34CC(F)(C3)C4)cn2)nnn1C)c1cccnc1F", "human LPAR1 (Homo sapiens, UniProt Q92633)", "band C"],
  ["C[C@@H](OC(=O)Nc1c(-c2ccc(C(=O)NC34CC(C#N)(C3)C4)cn2)nnn1C)c1cc(F)cnc1F", "human LPAR1 (Homo sapiens, UniProt Q92633)", "band B"],
  ["C#CC12CC(NC(=O)c3ccc(-c4nnn(C)c4NC(=O)O[C@H](C)c4cc(F)cnc4Cl)nc3)(C1)C2", "human LPAR1 (Homo sapiens, UniProt Q92633)", "band A"],
  ["C[C@@H](OC(=O)Nc1c(-c2ccc(C(=O)Nc3ccc(N4CCOCC4)cc3)cn2)nnn1C)c1cccnc1Cl", "human LPAR1 (Homo sapiens, UniProt Q92633)", "band C"],
  ["C[C@@H](OC(=O)Nc1c(-c2ccc(C(=O)NC34CC(C(F)(F)F)(C3)C4)cn2)nnn1C)c1cc(F)cnc1F", "human LPAR1 (Homo sapiens, UniProt Q92633)", "band B"],
  ["C[C@@H](OC(=O)Nc1c(-c2ccc(C(=O)Nc3ccc(-c4ccncc4)cc3)cn2)nnn1C)c1cc(F)cnc1F", "human LPAR1 (Homo sapiens, UniProt Q92633)", "band B"],
  ["COC(=O)C12CC(NC(=O)c3ccc(-c4nnn(C)c4NC(=O)O[C@H](C)c4cccnc4Cl)nc3)(C1)C2", "human LPAR1 (Homo sapiens, UniProt Q92633)", "band A"],
  ["C[C@@H](OC(=O)Nc1c(-c2ccc(C(=O)Nc3cnnc(Cl)c3)cn2)nnn1C)c1cc(F)cnc1F", "human LPAR1 (Homo sapiens, UniProt Q92633)", "band A"],
  ["C[C@@H](OC(=O)Nc1c(-c2ccc(C(=O)NC34CC(C(F)(F)F)(C3)C4)cn2)nnn1C)c1cccnc1F", "human LPAR1 (Homo sapiens, UniProt Q92633)", "band C"],
  ["C[C@@H](OC(=O)Nc1c(-c2ccc(C(=O)Nc3ccnc(F)c3)cn2)nnn1C)c1cc(F)cnc1F", "human LPAR1 (Homo sapiens, UniProt Q92633)", "band B"],
  ["C[C@@H](OC(=O)Nc1c(-c2ccc(C(=O)Nc3ccnc(C(F)F)c3)cn2)nnn1C)c1cc(F)cnc1F", "human LPAR1 (Homo sapiens, UniProt Q92633)", "band A"],
  ["C[C@@H](OC(=O)Nc1c(-c2ccc(C(=O)NC34CC(C#N)(C3)C4)cn2)nnn1C)c1cc(F)cnc1Cl", "human LPAR1 (Homo sapiens, UniProt Q92633)", "band A"],
  ["C[C@@H](OC(=O)Nc1c(-c2ccc(C(=O)NC34CC(CO)(C3)C4)cn2)nnn1C)c1cccnc1Cl", "human LPAR1 (Homo sapiens, UniProt Q92633)", "band C"],
  ["C[C@@H](OC(=O)Nc1c(-c2ccc(C(=O)NC34CC(Cl)(C3)C4)cn2)nnn1C)c1cccnc1Cl", "human LPAR1 (Homo sapiens, UniProt Q92633)", "band A"],
  ["C[C@@H](OC(=O)Nc1c(-c2ccc(C(=O)Nc3cccnc3)cn2)nnn1C)c1cccnc1Cl", "human LPAR1 (Homo sapiens, UniProt Q92633)", "band C"],
  ["C[C@@H](OC(=O)Nc1c(-c2ccc(C(=O)Nc3ccnc(C(F)(F)F)c3)cn2)nnn1C)c1cc(F)cnc1Cl", "human LPAR1 (Homo sapiens, UniProt Q92633)", "band A"],
  ["C[C@@H](OC(=O)Nc1c(-c2ccc(C(=O)Nc3ccc(C4CC4)nc3)cn2)nnn1C)c1cc(F)cnc1F", "human LPAR1 (Homo sapiens, UniProt Q92633)", "band C"],
  ["C[C@@H](OC(=O)Nc1c(-c2ccc(C(=O)Nc3ccncc3)cn2)nnn1C)c1cccnc1Cl", "human LPAR1 (Homo sapiens, UniProt Q92633)", "band B"],
  ["C[C@@H](OC(=O)Nc1c(-c2ccc(C(=O)Nc3nc(C(F)(F)F)co3)cn2)nnn1C)c1cc(F)cnc1Cl", "human LPAR1 (Homo sapiens, UniProt Q92633)", "band C"],
  ["C[C@@H](OC(=O)Nc1c(-c2ccc(C(=O)Nc3cccc(C(F)(F)F)c3)cn2)nnn1C)c1cc(F)cnc1F", "human LPAR1 (Homo sapiens, UniProt Q92633)", "band B"],
  ["C[C@@H](OC(=O)Nc1c(-c2ccc(C(=O)Nc3ccc(C#N)cc3)cn2)nnn1C)c1cc(F)cnc1Cl", "human LPAR1 (Homo sapiens, UniProt Q92633)", "band B"],
  ["C[C@@H](OC(=O)Nc1c(-c2ccc(C(=O)Nc3cnc(C(F)(F)F)s3)cn2)nnn1C)c1cc(F)cnc1F", "human LPAR1 (Homo sapiens, UniProt Q92633)", "band A"],
  ["C[C@@H](OC(=O)Nc1c(-c2ccc(C(=O)Nc3cnc(C(F)(F)F)nc3)cn2)nnn1C)c1cc(F)cnc1F", "human LPAR1 (Homo sapiens, UniProt Q92633)", "band C"]
]}
